All figures here come from the Human Domainome abundance scans (Beltran et al. 2025).

B1: Mineralocorticoid receptor, residues 600 to 675; numbered along this chain, P08235 (parent)
chain: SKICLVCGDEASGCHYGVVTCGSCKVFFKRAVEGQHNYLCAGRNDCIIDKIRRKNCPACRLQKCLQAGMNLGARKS

Variants of: B1
Assay: abundance fitness (aPCA) (normalised: wild type 0, dead -1); higher = more abundant; growth selection in yeast, the domain comes from the species named
Settings: Homo sapiens
Outcome: 1 for abundance fitness of at least -0.04; -1 for anything lower.

H36G; 1

Task item: Kindly determine if abundance fitness recorded for "S76E" is above or exactly -0.04.
Reply: -1

Task item: Same for "V18Y"
Reply: -1

Task item: Same for "L5N"
Reply: -1

Task item: Same for "G72R"
Reply: -1

Task item: Same for "F27C"
Reply: -1

Task item: Same for "V19N"
Reply: 1

Task item: Same for "C40R"
Reply: -1

Task item: Same for "V32R"
Reply: -1
